Items are presented alongside their recorded Plant response rating, Oat, Wild.
- System: wild oat (Avena fatua)
- test-name: Test B pre-/postemergence plant response
- Type: in vivo
- settings: 31 g ai/ha, postemergence; scale 0 to 100, 0 is no effect, 100 is complete control
Response field accepts a number only; no unit should be typed.

// worked examples, Plant response rating, Oat, Wild included
CCCn1c(-c2ccccc2)ncc(C(=O)C2=C(O)CCCC2=O)c1=O [Compound 50] :: 5
O=C1CCCC(O)=C1C(=O)c1cnc(-c2ccsc2)n(CC2CCCO2)c1=O (centres unmarked) [Compound 98] :: 10
O=C1CCCC(O)=C1C(=O)c1cnc(-c2cccc(Br)c2)n(-c2ccccc2)c1=O [Compound 69] :: 60
CCOCCn1c(-c2ccccc2)ncc(C(=O)C2=C(O)CCCC2=O)c1=O [Compound 96] :: 0

Request: Return reported Plant response rating, Oat, Wild. Input molecule: COCCn1c(-c2ccco2)ncc(C(=O)C2=C(O)CCCC2=O)c1=O [Compound 111]
Response: 0

Request: Return reported Plant response rating, Oat, Wild. Input molecule: O=C1CCCC(O)=C1C(=O)c1cnc(-c2ccccc2)n(C2CC2)c1=O [Compound 90]
Response: 0

Request: Return reported Plant response rating, Oat, Wild. Input molecule: Cc1ccc(F)c(-n2c(-c3ccccc3)ncc(C(=O)C3=C(O)CCCC3=O)c2=O)c1 [Compound 51]
Response: 60

Request: Return reported Plant response rating, Oat, Wild. Input molecule: COCCn1c(-c2cccs2)ncc(C(=O)C2=C(O)CCCC2=O)c1=O [Compound 108]
Response: 0
